System: RAW-Dual
experimentSummary: NF-kB SEAP reporter activity, fold change vs agonist alone; higher = enhanced NF-kB activity
settings: library stock concentration (final ~1000-fold dilution): 10 mM; cytotoxicity flag (confluency mask): not cytotoxic; agonist: Imiquimod (TLR7) […]
In all, about 2,900 compounds were measured (“NF-kB SEAP reporter activity, fold change vs agonist alone”: median about 0.99, highest 2% from about 2.6 on). The sample holds the highest values, similar compounds and a random draw of the others, so the mix is not that of the screen.
readoutName: NF-kB SEAP reporter activity
Field format: numeric only.

See these solved cases before continuing.
- compound: "CCOC(=O)C(CCc1ccccc1)NC(C)C(=O)N1C(=O)N(C)CC1C(=O)O.Cl (stereo not given)"
  NF-kB SEAP reporter activity: 0.962
- compound: "COc1cc(C(=O)O)ccc1NC(=O)C1NC(CC(C)(C)C)C(C#N)(c2ccc(Cl)cc2F)C1c1cccc(Cl)c1F (stereo not given)"
  NF-kB SEAP reporter activity: 0.74
- compound: "CC12CC(O)C3CC1(OC1OC(CO)C(O)C(O)C1O)C3(COC(=O)c1ccccc1)C(=O)O2 (stereo not given)"
  NF-kB SEAP reporter activity: 0.925
- compound: "CN1CCc2c(c3ccccc3n2Cc2ccc(C(=O)NO)cc2)C1.Cl"
  NF-kB SEAP reporter activity: 2.44

Next compound, NF-kB SEAP reporter activity to be filled in.
Any idea what its NF-kB SEAP reporter activity is? The compound is Cc1[nH]nc(C(F)(F)F)c1Cc1sc2c(c1C(=O)N1CC(C)(O)CO1)c(=O)n(C)c(=O)n2C(C)C (stereo not given) 1.11

###

List of NF-kB SEAP reporter activity values.
Tested on: RAW-Dual
experimentSummary: NF-kB SEAP reporter activity, fold change vs agonist alone; cytotoxicity flag (confluency mask): cytotoxic (confluency <70% of control); higher = enhanced NF-kB activity
settings: agonist: Pam3CSK4 (TLR2/1) 0.1 ug/mL
Whole data set: some 2,900 compounds, median “NF-kB SEAP reporter activity, fold change vs agonist alone” near 0.99, cut for the highest 2% near 2.6. This excerpt belongs to a sample that is enriched for the highest values.
Field format: numeric only.

Any idea what its NF-kB SEAP reporter activity is? The compound is COc1ccc(-c2ccc3ncc4c(c3c2)n(-c2ccc(N3CCNCC3)c(C(F)(F)F)c2)c(=O)n4C)cn1.O=C(O)/C=C\C(=O)O (library stock concentration (final ~1000-fold dilution): 10 mM) 0.217

Any idea what its NF-kB SEAP reporter activity is? The compound is Cc1cnc(Nc2ccc(OCCN3CCCC3)cc2)nc1Nc1cccc(S(=O)(=O)NC(C)(C)C)c1 (library stock concentration (final ~1000-fold dilution): 10 mM) 3.55

Any idea what its NF-kB SEAP reporter activity is? The compound is COc1cc(NS(C)(=O)=O)ccc1Nc1c2ccccc2nc2ccccc12.Cl (library stock concentration (final ~1000-fold dilution): 10 mM) 0.776

###

List of NF-kB SEAP reporter activity values.
Test system: RAW-Dual
experimentSummary: NF-kB SEAP reporter activity, fold change vs agonist alone; cytotoxicity flag (confluency mask): not cytotoxic; higher = enhanced NF-kB activity
settings: agonist: Pam2CSK4 (TLR2/6) 0.1 ug/mL
Whole data set: some 2,900 compounds, median “NF-kB SEAP reporter activity, fold change vs agonist alone” near 0.99, cut for the highest 2% near 2.6. Many of the other results were omitted from the sample, so the highest values are more common in it than they were.
Field format: numeric only.

- compound: "CCCCCCCCCCCC(CC1OC(=O)C1CCCCCC)OC(=O)C(CC(C)C)NC=O (stereo not given) (library stock concentration (final ~1000-fold dilution): 10 mM)"
  quantitativeResult: 0.959
- compound: "CCN(CC)CCNC(=O)c1ccc(N)cc1.Cl (library stock concentration (final ~1000-fold dilution): 10 mM)"
  quantitativeResult: 0.923
- compound: "O=C(Nc1cc(C(F)(F)F)ccc1N1CCN(Cc2ccccn2)CC1)c1ccc(-c2ccncc2)o1 (library stock concentration (final ~1000-fold dilution): 10 mM)"
  quantitativeResult: 0.657
- compound: "C=CC(=O)Nc1cc(Nc2nccc(-n3cc(CN(C)C)c(-c4ccccc4)n3)n2)c(OC)cc1N1CCOCC1 (library stock concentration (final ~1000-fold dilution): 2 mM)"
  quantitativeResult: 0.927

Next compound, NF-kB SEAP reporter activity to be filled in.
Any idea what its NF-kB SEAP reporter activity is? The compound is CC12CC(O)C3CC1(OC1OC(CO)C(O)C(O)C1O)C3(COC(=O)c1ccccc1)C(=O)O2 (stereo not given) (library stock concentration (final ~1000-fold dilution): 10 mM) 1.11

###

List of NF-kB SEAP reporter activity values.
Test system: RAW-Dual
experimentSummary: NF-kB SEAP reporter activity, fold change vs agonist alone; higher = enhanced NF-kB activity
settings: library stock concentration (final ~1000-fold dilution): 10 mM; cytotoxicity flag (confluency mask): not cytotoxic; agonist: Imiquimod (TLR7) […]
In all, about 2,900 compounds were measured (“NF-kB SEAP reporter activity, fold change vs agonist alone”: median about 0.99, highest 2% from about 2.6 on). Many of the other results were omitted from the sample, so the highest values are more common in it than they were.

See these solved cases before continuing.
- molecule: "O=C(/C=C/c1ccccc1)NC(NC(=S)Nc1cccc2cccnc12)C(Cl)(Cl)Cl (stereo not given)"
  NF-kB SEAP reporter activity: 0.628
- molecule: "Cc1noc(C)c1-c1ccc2[nH]c(=O)n3c2c1OCC3c1ccccn1 (stereo not given)"
  NF-kB SEAP reporter activity: 1.5
- molecule: "Cn1nc(C(C)(C)C)cc1C(=O)NC(Cc1cccc(Cl)c1)C(=O)NCC#N (stereo not given)"
  NF-kB SEAP reporter activity: 0.765
- molecule: "CC(C)=CCC/C(C)=C/CC/C(C)=C/CC/C=C(\\C)CC/C=C(\\C)CCC=C(C)C"
  NF-kB SEAP reporter activity: 0.926
- molecule: "Cc1csc(-c2nc[nH]c2-c2ccc3ncsc3c2)n1.Cl"
  NF-kB SEAP reporter activity: 0.927

Next molecule, NF-kB SEAP reporter activity to be filled in.
Any idea what its NF-kB SEAP reporter activity is? The molecule is Cl.Cl.Fc1cc(-c2cccc3ncc(-c4cnn(C5CCNCC5)c4)nc23)cc(F)c1CN1CCOCC1 0.92

###

Test system: RAW-Dual
experimentSummary: NF-kB SEAP reporter activity, fold change vs agonist alone; cytotoxicity flag (confluency mask): not cytotoxic; higher = enhanced NF-kB activity
settings: agonist: Pam3CSK4 (TLR2/1) 0.1 ug/mL
Over roughly 2,900 compounds, “NF-kB SEAP reporter activity, fold change vs agonist alone” has its median near 0.99; the highest 2% begin near 2.6. This excerpt belongs to a sample that is enriched for the highest values.
NF-kB SEAP reporter activity vs 1: at or above is 1.0, below is 0.0.

These solved cases illustrate the format of a correct answer.
- compound: "COC(=O)NC(C(=O)NC(Cc1ccccc1)C(O)CN(Cc1ccc(-c2ccccn2)cc1)NC(=O)C(NC(=O)OC)C(C)(C)C)C(C)(C)C (centres undefined) (library stock concentration (final ~1000-fold dilution): 10 mM)"
  className: 0.0
- compound: "Nc1nonc1/C(=N\\O)Nc1ccc(F)c(Cl)c1 (library stock concentration (final ~1000-fold dilution): 10 mM)"
  className: 0.0
- compound: "COC(=O)NC(C(=O)NC(Cc1ccccc1)C(O)CN(Cc1ccc(-c2ccccn2)cc1)NC(=O)C(NC(=O)OC)C(C)(C)C)C(C)(C)C.O=S(=O)(O)O (centres undefined) (library stock concentration (final ~1000-fold dilution): 10 mM)"
  className: 1.0
- compound: "CN1CCN(CC(=O)N2c3ccccc3C(=O)Nc3cccnc32)CC1.Cl.Cl (library stock concentration (final ~1000-fold dilution): 10 mM water)"
  className: 1.0
- compound: "CC(C)CC(NC(=O)C(Cc1ccccc1)CC(O)C(Cc1ccccc1)NC(=O)OC(C)(C)C)C(=O)NC(Cc1ccccc1)C(N)=O (centres undefined) (library stock concentration (final ~1000-fold dilution): 10 mM)"
  className: 0.0

Reported NF-kB SEAP reporter activity at or above 1? Cc1cc([N+](=O)[O-])ccc1NS(=O)(=O)c1cc(Cl)ccc1Cl (library stock concentration (final ~1000-fold dilution): 10 mM) 0.0

Reported NF-kB SEAP reporter activity at or above 1? Cl.O=c1[nH]ccc2c(S(=O)(=O)N3CCCNCC3)cccc12 (library stock concentration (final ~1000-fold dilution): 10 mM) 1.0

Reported NF-kB SEAP reporter activity at or above 1? COc1cc(C(N)=O)nc(-c2cccc(C#C[C@]3(O)CCN(C)C3=O)c2)c1 (library stock concentration (final ~1000-fold dilution): 10 mM) 0.0

Reported NF-kB SEAP reporter activity at or above 1? NC(N)=NCCCC(N)C(=O)NC(CCCN=C(N)N)C(=O)N1CCCC1C(=O)N1CC(O)CC1C(=O)NCC(=O)NC(Cc1cccs1)C(=O)NC(CO)C(=O)N1Cc2ccccc2CC1C(=O)N1C(C(=O)NC(CCCN=C(N)N)C(=O)O)CC2CCCCC21 (centres undefined) (library stock concentration (final ~1000-fold dilution): 2 mM water) 0.0

Reported NF-kB SEAP reporter activity at or above 1? COC(=O)c1sccc1S(=O)(=O)Nc1ccc(Nc2ccccc2)cc1OC (library stock concentration (final ~1000-fold dilution): 10 mM) 0.0

Reported NF-kB SEAP reporter activity at or above 1? O=S(=O)(NCCSSCCNS(=O)(=O)c1cc(Cl)ccc1Cl)c1cc(Cl)ccc1Cl (library stock concentration (final ~1000-fold dilution): 10 mM) 0.0

Reported NF-kB SEAP reporter activity at or above 1? O=[N+]([O-])c1ccc(Nc2ccccc2-c2ccccc2)c2nonc12 (library stock concentration (final ~1000-fold dilution): 10 mM) 0.0

Reported NF-kB SEAP reporter activity at or above 1? Cc1nc(NC(=O)N2CCCC2C(N)=O)sc1-c1ccnc(C(C)(C)C(F)(F)F)c1 (centres undefined) (library stock concentration (final ~1000-fold dilution): 10 mM) 1.0

Reported NF-kB SEAP reporter activity at or above 1? Cl.Cl.NC1CCC(NC2CC2c2ccccc2)CC1 (centres undefined) (library stock concentration (final ~1000-fold dilution): 10 mM) 0.0

Reported NF-kB SEAP reporter activity at or above 1? COc1ccc(CC(N)C(=O)NC2C(CO)OC(n3cnc4c(N(C)C)ncnc43)C2O)cc1.Cl.Cl (centres undefined) (library stock concentration (final ~1000-fold dilution): 10 mM) 0.0

Reported NF-kB SEAP reporter activity at or above 1? O=C(OCC1OC(OC(=O)c2cc(O)c(O)c(OC(=O)c3cc(O)c(O)c(O)c3)c2)C(OC(=O)c2cc(O)c(O)c(OC(=O)c3cc(O)c(O)c(O)c3)c2)C(OC(=O)c2cc(O)c(O)c(OC(=O)c3cc(O)c(O)c(O)c3)c2)C1OC(=O)c1cc(O)c(O)c(OC(=O)c2cc(O)c(O)c(O)c2)c1)c1cc(O)c(O)c(OC(=O)c2cc(O)c(O)c(O)c2)c1 (centres undefined) (library stock concentration (final ~1000-fold dilution): 10 mM) 0.0
